Values were extracted from the supplement of paper PMC10600219.

System: NCI-H2228 alectinib-DTP
Test: cell viability relative to vehicle (fraction of vehicle); higher = less growth inhibition
Details: 100 nM; treatment time 6 days
Whole data set: some 2,800 compounds, median “cell viability relative to vehicle” near 0.98, cut for the lowest 2% near 0.45. The entries come from a sample that favours the lowest values as a whole.

{"columns": ["Molecule", "cell viability"],
 "data": [
  ["Cc1cc([N+](=O)[O-])c(NS(=O)(=O)c2cccc(C(=O)O)c2)cc1-c1cccnc1 [Alofanib]", 0.978],
  ["CNC(=O)c1cccc(-c2ccc3c(N4CCOC[C@@H]4C)nc(N4CCOC[C@@H]4C)nc3n2)c1 [Vistusertib]", 0.594],
  ["Cc1nn(C)cc1-c1nc2c(N3CCN(Cc4ccc(Cl)cc4)CC3)c(Cl)cnc2[nH]1", 0.998]
]}

----------
This section presents molecules with their documented cell viability values.
Test system: NCI-H2228 alectinib-DTP
Assay: cell viability relative to vehicle (fraction of vehicle); higher = less growth inhibition
Conditions: 100 nM; treatment time 6 days
Where a name gives a salt, the structure may show the parent alone. Over roughly 2,800 compounds, “cell viability relative to vehicle” has its median near 0.98; the lowest 2% begin near 0.45. This excerpt belongs to a sample that is enriched for the lowest values.

{"columns": ["Molecule", "cell viability"],
 "data": [
  ["CN(C)C1CCN(C(=O)c2ccc(NC(=O)Nc3ccc(-c4nc(N5CCOCC5)nc(N5CCOCC5)n4)cc3)cc2)CC1", 0.385],
  ["CC[C@@]1(O)C(=O)OCc2c1cc1n(c2=O)Cc2cc3cc(O)ccc3nc2-1 [10-Hydroxycamptothecin]", 0.304],
  ["Cc1ccc([N+](=O)[O-])cc1S(=O)(=O)N(C)/N=C/c1cnc2ccc(Br)cn12", 0.172],
  ["Cc1nc(Nc2ncc(C(=O)Nc3c(C)cccc3Cl)s2)cc(N2CCN(CCO)CC2)n1 [Dasatinib monohydrate]", 0.489],
  ["COC(=O)Nc1ccc(-c2nc(N3CCOCC3)c3cnn(C4CCN(C(=O)OC)CC4)c3n2)cc1", 0.855],
  ["CS(=O)(=O)Nc1cc(-c2ccc3ncnc(Nc4ccc(F)c(Cl)c4)c3c2)cnc1Cl", 0.997],
  ["CCCS(=O)(=O)Nc1ccc(F)c(C(=O)c2c[nH]c3ncc(-c4ccc(Cl)cc4)cc23)c1F", 1.12],
  ["O=C(O)COc1ccc(Br)cc1/C=C1\\SC(=S)N(Cc2cccnc2)C1=O", 1.08],
  ["CC(=O)NC(Cc1ccccc1)C(=O)O (configuration not stated)", 0.984],
  ["COC(=O)c1cc(O)c(O)c(O)c1 [Methyl gallate]", 1.07],
  ["CCn1cc(C(=O)O)c(=O)c2c(N)c(F)c(NC3CCCCC3)cc21", 1.1],
  ["O=C(NO)c1cnc(NC2(c3ccccc3)CC2)nc1", 1.01],
  ["CCc1c2c(nc3ccc(O)cc13)-c1cc3c(c(=O)n1C2)COC(=O)[C@]3(O)CC", 0.263],
  ["NC[C@H]1OB(O)c2c(OCCCO)cccc21 [Epetraborole hydrochloride]", 1.11],
  ["COc1ccc(C(c2c[nH]c3ccccc23)c2c[nH]c3ccccc23)cc1", 1.04],
  ["COc1cc2c(NC3CCN(C(C)C)CC3)nc(C3CCCCC3)nc2cc1OCCCN1CCCC1", 1.15],
  ["CCNC(=O)Nc1ccc(-c2nc(N3CCOC[C@@H]3C)c3c(n2)C(C)(C)S(=O)(=O)C3)cc1", 0.508],
  ["CCc1c2c(nc3ccc(OC(=O)N4CCC(N5CCCCC5)CC4)cc13)-c1cc3c(c(=O)n1C2)COC(=O)[C@]3(O)CC [Irinotecan hydrochloride trihydrate]", 1.05],
  ["COc1ccc(CC(=O)NC(/N=C(\\NC#N)Nc2cccc3ncccc23)C(C)(C)C)cc1OC (configuration not stated)", 0.985],
  ["CC[C@@]1(O)C(=O)OCc2c1cc1n(c2=O)Cc2cc3cc(O)ccc3nc2-1 [Hydroxy Camptothecine]", 0.255],
  ["CC1(C)CC[C@]2(C(=O)O)CCC3=C([C@@H](CCl)C[C@@H]4[C@@]5(C)C[C@H](O)[C@H](O)[C@@](C)(C(=O)O)[C@@H]5CC[C@@]34C)[C@@H]2C1", 0.889],
  ["CCC(Sc1nnc2c(n1)[nH]c1ccccc12)C(=O)N1c2ccccc2Sc2ccccc21 (configuration not stated)", 1.06],
  ["Cc1cccc(C)c1N(CC(=O)Nc1ccc(-c2ncon2)cc1)C(=O)C1CCS(=O)(=O)CC1", 0.926],
  ["COc1ccc(-c2ccccc2)cc1NS(=O)(=O)c1cc(Cl)cc(Cl)c1O", 0.883],
  ["CN1CCN(CCCNc2ncc(Cl)c(-c3cc4c(C(=O)NC5CC5)cccc4s3)n2)CC1", 0.958],
  ["C[C@H](CC(=O)C[C@@H](C)[C@H]1C[C@H](O)[C@@]2(C)C3=C(C(=O)C[C@]12C)[C@@]1(C)CCC(=O)C(C)(C)[C@@H]1C[C@@H]3O)C(=O)O", 1.03],
  ["COC[C@H](NC(=O)c1cnc(C)s1)C(=O)N[C@@H](COC)C(=O)N[C@@H](Cc1ccccc1)C(=O)[C@@]1(C)CO1", 0.371],
  ["Oc1ccc(C(c2c[nH]c3ccccc23)c2c[nH]c3ccccc23)cc1", 1.08],
  ["Cc1ccc(S(=O)(=O)Nc2cc(C(F)(F)F)ccc2C(=O)Nc2nc(-c3ccccc3)cs2)cc1", 0.852],
  ["Cc1cc(Nc2cc(N3CCN(C)CC3)nc(Sc3ccc(NC(=O)C4CC4)cc3)n2)n[nH]1", 0.762],
  ["OC(CCN1CCCCC1)(c1ccccc1)C1CCCCC1 (racemic) [DL-trihexyphenidyl hydrochloride]", 0.964],
  ["COc1ccc(S(=O)(=O)/N=C2\\C=CC=C\\C2=C/C=C2C=CN(O)C=C2)cc1", 0.935]
]}

----------
Tested on: NCI-H2228 alectinib-DTP
Test: cell viability relative to vehicle (fraction of vehicle); higher = less growth inhibition
Conditions: 100 nM; treatment time 6 days
Whole data set: some 2,800 compounds, median “cell viability relative to vehicle” near 0.98, cut for the lowest 2% near 0.45. For the sample, the lowest values were picked, then their nearest neighbours and some compounds at random.

{"columns": ["Compound", "cell viability"],
 "data": [
  ["CN1CC(=O)N2[C@H](c3ccc4c(c3)OCO4)c3[nH]c4ccccc4c3C[C@@H]2C1=O", 0.916],
  ["CC(C)(C)c1ccc(C(=O)NC(=S)Nc2ccc(N)cc2)cc1", 0.734],
  ["Nc1cc(F)ccc1NC(=O)c1ccc(CNC(=O)/C=C/c2cccnc2)cc1 [Chidamide]", 0.775]
]}

----------
Examples of molecules with documented cell viability follow.
System: NCI-H2228 alectinib-DTP
Assay: cell viability relative to vehicle (fraction of vehicle); NCI-H2228 is an ALK-positive lung cancer line and DTP means drug-tolerant persister; higher = less growth inhibition
Conditions: 100 nM; treatment time 6 days
Where a name gives a salt, the structure may show the parent alone. Whole data set: some 2,800 compounds, median “cell viability relative to vehicle” near 0.98, cut for the lowest 2% near 0.45. The entries come from a sample that favours the lowest values as a whole.

{"columns": ["Molecule", "cell viability"],
 "data": [
  ["CC(=O)c1ccc(NC2=C(Cl)C(=O)c3ccccc3C2=O)cc1", 0.908],
  ["CC(C)n1cnc2c(NCc3ccccc3)nc(NCCCO)nc21 [Bohemine]", 0.951],
  ["CN(C)C/C=C/C(=O)Nc1ccc(C(=O)Nc2cccc(Nc3ncc(Cl)c(-c4c[nH]c5ccccc45)n3)c2)cc1", 0.346],
  ["CCOc1cc2ncc(C#N)c(Nc3ccc(F)c(Cl)c3)c2cc1NC(=O)/C=C/CN(C)C [Pelitinib]", 0.507],
  ["CC(=O)N[C@H]1CSSC[C@@H](C(N)=O)NC(=O)[C@H](C(C)C)NC(=O)[C@H](C)NC(=O)[C@H](Cc2c[nH]cn2)NC1=O [Exherin trifluoroacetate]", 1.11],
  ["Cc1cc(C(=O)Nc2nc3cccc(Cl)c3n2[C@@H]2CCCCN(C(=O)/C=C/CN(C)C)C2)ccn1 [Nazartinib]", 0.907],
  ["CC(C(=O)Nc1cccc(/N=C/c2c(O)ccc3ccccc23)c1)c1ccccc1 (centres undefined) [Salermide]", 0.89],
  ["COc1cc(N2CCC(N3CCN(C)CC3)CC2)ccc1Nc1ncc(Cl)c(-c2c[nH]c3ccccc23)n1", 0.893],
  ["CN1C(N)=N[C@](C)(c2cc(NC(=O)c3ccc(F)cn3)ccc2F)CS1(=O)=O [Verubecestat]", 0.969],
  ["CCc1cnn2c(NCc3ccc[n+]([O-])c3)cc(N3CCCC[C@H]3CCO)nc12 [Dinaciclib]", 0.17],
  ["CN1CCN(Cc2ccc(Nc3ncc(Cl)c(Nc4ccccc4S(=O)(=O)N(C)C)n3)cc2)CC1", 0.122],
  ["CNS(=O)(=O)c1ccccc1Nc1nc(Nc2ccc(N3CCN(C)CC3)cc2OC)ncc1Cl [ALK inhibitor 2]", 1],
  ["Cc1cc(O)c(-c2ccc(C(C)CN)cc2)c2c1[nH]c(=O)c1sccc12 (centres undefined)", 0.15],
  ["Cc1cc(NC(=O)c2cccc(NC(=O)/C=C/CN(C)C)c2)ccc1Nc1nccc(-c2cccnc2)n1", 0.841]
]}
